# measured_target: T1, extracellular portion of human CD137 fused to a histidine-containing peptide (human, UniProt Q07011 24-186)
# T1 construct: extracellular domain; also called huCD137; His-tagged soluble human CD137
# method: SPR (BIACORE); antibody captured on anti-human Fc; huCD137 25 and 100 nM; 1:1 Langmuir
# Protocol: Thus, an extracellular portion of human CD137 fused to a histidine-containing peptide (“huCD137”) was passed over a surface coated with immobilized antibody. Briefly, each test molecule was captured onto an F(ab)₂ goat-anti-human Fc-coated surface and then incubated in the presence of different concentrations (25 nM and 100 nM) of huCD137. The kinetics of binding were determined via BIACORE® analysis binding (normalized 1:1 Langmuir binding model).
Would you kindly list kon for each of these binders?
I only need the number, in M⁻¹ s⁻¹, no unit after it.

Quick one: kon of hCD137 MAB-4 (1.2) (antibody, V domains shown, also called chCD137 MAB-4 (1.2)) VH: QVQLVQSGAEVKKPGASVKVSCKASGYTFTSYWINWVRQAPGQGLEWMGNIYPSDSYTNYDQKFKDRVTMTRDTSTSTVYMELSSLRSEDTAVYYCTKSGEYGKIGYYAMDYWGQGTTVTVSS VL: DIQMTQSPSSLSASVGDRVTITCRASQDISNYLNWYQQKPDKTVKLLIYYTSRLHSGVPSRFSGSGSGTDYTLTISSLQPEDIATYYCQQGNTLPYTFGQGTKLEIK ? 140000

Consider next the binder chCD137 MAB-3 (antibody, V domains shown) VH: QVQLQQPGAELVRPGASVKLSCKASGYTFTSYWINWVKQRPGQGLEWIGNIYPSDSYTNYNQKFKDKATLTVDKSSSTAYMQLSSPTSEDSAVYYCTRDYGSSYSFDYWGQGTTLTVSS VL: DIQMTQTTSSLSASLGDRVTISCRPSQDISNYLNWYQQKPDGTVKLLIYYTSRLRSGVPSRFSGSGSGTDYSLTISNLEQEDIATYFCQQGDTLPYTFGGGTKLEIK in the same way. 890000

Consider next the binder hCD137 MAB-3 (1.1) (antibody, V domains shown, also called chCD137 MAB-3 (1.1)) VH: QVQLVQSGAEVKKPGASVKVSCKASGYTFTSYWINWVKQAPGQGLEWIGNIYPSDSYTNYNQKFKDKATITADKSTSTAYMELSSLRSEDTAVYYCTRDYGSSYSFDYWGQGTTVTVSS VL: DIQMTQSPSSLSASVGDRVTITCRPSQDISNYLNWYQQKPDGTVKLLIYYTSRLRSGVPSRFSGSGSGTDFTFTISSLQPEDIATYFCQQGDTLPYTFGQGTKLEIK in the same way. 670000
